// provenance: ChEMBL document CHEMBL1201862

# Test system: NCI-H460
# Method Description: NCI tumour cell line growth inhibition, 48 h
Calls of active or inactive are those of the source. Cut-off read from the data, not from the text of the source: active = GI50 up to about 1.1 µM and inactive = higher.
Quantity Kind: GI50

COc1ccc(-c2cc3c(c4cc(OC)ccc24)C(=O)OC3=O)cc1: > 100 µM (inactive)
COC(=O)/C1=C/C2CC(/C=C(/c3ccccc3)C(=O)O1)C2: 32.6 µM (inactive)
COC(=O)C1=C(C)NC2(O)C=CC(=O)C3C(=O)N(c4ccccc4)C(=O)C132 (configuration not stated): > 100 µM (inactive)
O=C(NC(c1ccccc1)C(O)C(=O)OCc1ccc2c(c1)C(=O)c1ccccc1C2=O)c1ccccc1 (configuration not stated): 14.9 µM (inactive)
CCOc1cccc2ccc[n+](CC)c12: 75.7 µM (inactive)

Prompt line: Report the value of GI50 obtained on NCI-H460 for CC(C)(C)OC(=O)[N+](=N)C(=O)C1CCC(=O)N1C(=O)OCc1ccccc1 (configuration not stated) .
Response line: > 100 µM (inactive)

Prompt line: Report the value of GI50 obtained on NCI-H460 for NNC(=O)/C(=C/c1ccc(Cl)c(Cl)c1)NC(=O)c1ccccc1 .
Response line: > 100 µM (inactive)

Prompt line: Report the value of GI50 obtained on NCI-H460 for CCC1(CC)C(=O)N(C(=O)c2cc(OC)c(OC)c(OC)c2)N(C(=O)c2cc(OC)c(OC)c(OC)c2)C1=O .
Response line: > 50 µM (inactive)

Prompt line: Report the value of GI50 obtained on NCI-H460 for COc1ccc(C(c2ccc3c(c2)OCO3)N2C(=O)CCC2C(=O)O)cc1 (configuration not stated) .
Response line: > 100 µM (inactive)

Prompt line: Report the value of GI50 obtained on NCI-H460 for CCCCCN1C(=O)C(Cc2ccccc2)N=C(c2ccc(O)cc2)c2cc(Cl)ccc21 (configuration not stated) .
Response line: 7.73 µM (inactive)

Prompt line: Report the value of GI50 obtained on NCI-H460 for O=C1c2c(Cl)c(Cl)c(Cl)c(Cl)c2C(=O)N1CCN(c1c(Cl)ssc1=O)c1c(Cl)ssc1=O .
Response line: 32.1 µM (inactive)

Prompt line: Report the value of GI50 obtained on NCI-H460 for COc1ccc2c(c1)[n+]([O-])c(/C(C)=N/NC(=O)c1ccccc1O)c(C)[n+]2[O-] .
Response line: > 100 µM (inactive)

Prompt line: Report the value of GI50 obtained on NCI-H460 for C#CC(C)(C)Oc1cc(O)c2c(=O)c3ccccc3n(C)c2c1 .
Response line: 24.5 µM (inactive)

Prompt line: Report the value of GI50 obtained on NCI-H460 for Cc1cnc2cc(Cl)ccc2c1SCC(=O)O .
Response line: > 100 µM (inactive)

Prompt line: Report the value of GI50 obtained on NCI-H460 for C(/Cc1ccc2c(c1)OCO2)=N\N=C1NCCCCN1 .
Response line: 45.8 µM (inactive)

Prompt line: Report the value of GI50 obtained on NCI-H460 for O=C(CSCC(=O)N/N=C/c1ccc2c(c1)OCO2)N/N=C/c1ccc2c(c1)OCO2 .
Response line: > 100 µM (inactive)

Prompt line: Report the value of GI50 obtained on NCI-H460 for CN1/C(=C/C=C/C=C/C=C2C(=O)c3ccccc3C2=O)C(C)(C)c2ccccc21 .
Response line: 53.5 µM (inactive)

Prompt line: Report the value of GI50 obtained on NCI-H460 for COc1cc(Nc2nc3ccc(C(F)(F)F)cc3nc2-c2ccccc2)cc(OC)c1OC .
Response line: 4.82 µM (inactive)

Prompt line: Report the value of GI50 obtained on NCI-H460 for CC(C)C(Sc1nc(N)nc2nc[nH]c12)C(=O)O (configuration not stated) .
Response line: > 100 µM (inactive)

Prompt line: Report the value of GI50 obtained on NCI-H460 for CSc1c2c(C)n[nH]c2nn1-c1ccccc1 .
Response line: > 100 µM (inactive)
